Test system: NCI panel of 60 tumor cell lines
Test: NCI SRB growth inhibition, whole panel mean (single dose 10 µM / five-dose)
Format: cell-based, human
Conditions: Homo sapiens; mean over NCI panel of 60 tumor cell lines, 10 µM; read-out: Mean growth inhibition %
measurement name: inhibition at 10 µM

Q. # lookup: inhibition at 10 µM of `COc1ccc(-c2nc3cc(C(=O)NN=Cc4ccccc4O)ccc3[nH]2)cc1`
A. > 100%

Q. Same read-out for `COc1ccc(-c2nc3cc(C(=O)NN=Cc4cccc(O)c4)ccc3[nH]2)cc1` ?
A. 33.1%

Q. Now give it for `COc1ccc(-c2nc3cc(C(=O)NN=Cc4cccc(OC)c4O)ccc3[nH]2)cc1` too.
A. > 100%

Q. Now the same for `COc1ccc(-c2nc3cc(C(=O)NN=Cc4ccc(OC)c(O)c4)ccc3[nH]2)cc1`
A. 34.4%

Q. Same for `COc1cccc(C=NNC(=O)c2ccc3[nH]c(-c4ccccc4)nc3c2)c1O`
A. 92.5%

Q. Query `COc1ccc(C=NNC(=O)c2ccc3[nH]c(-c4ccc(Cl)cc4)nc3c2)cc1O` next
A. 49.5%

Q. Now this one: `COc1ccc(-c2nc3cc(C(=O)NN=Cc4cccc(OC)c4)ccc3[nH]2)cc1`
A. > 100%

Q. Check `O=C(NN=Cc1cccc(O)c1)c1ccc2[nH]c(-c3ccc(Cl)cc3)nc2c1` too.
A. 25.4%

Q. Same lookup for `COc1ccc(-c2nc3cc(C(=O)NN=Cc4cc(OC)ccc4OC)ccc3[nH]2)cc1` , please.
A. 10.9%

Q. Another compound to look at: `COc1cc(C=NNC(=O)c2ccc3[nH]c(-c4ccccc4)nc3c2)cc(OC)c1OC`
A. 36%

Q. For `COc1ccc(-c2nc3cc(C(=O)NN=Cc4cc(OC)c(OC)c(OC)c4)ccc3[nH]2)cc1` then?
A. 13.6%

---

System: EKVX
Experiment: NCI SRB growth inhibition (single dose 10 µM / five-dose)
Format: cell-based, human
Details: Homo sapiens; EKVX, Non-small cell lung cancer; five-dose
Exercise: for every item that follows, state its recorded GI50.
Provide only the numeric value, understood in µM.

Q. # lookup: GI50 of `O=C(NN=Cc1ccccc1O)c1ccc2[nH]c(-c3ccc(Cl)cc3)nc2c1`
A. 9.31

Q. Quick one: `COc1cccc(C=NNC(=O)c2ccc3[nH]c(-c4ccc(Cl)cc4)nc3c2)c1O`
A. 4.56

Q. Try `COc1cccc(C=NNC(=O)c2ccc3[nH]c(-c4ccc(Cl)cc4)nc3c2)c1` next.
A. 3.52

Q. Next compound up: `COc1cccc(C=NNC(=O)c2ccc3[nH]c(-c4ccccc4)nc3c2)c1O`
A. 1.86

Q. Similarly, `COc1cc(C=NNC(=O)c2ccc3[nH]c(-c4ccc(Cl)cc4)nc3c2)cc(OC)c1OC` ?
A. 14.8

---

Kindly supply the reported inhibition at 10 µM values for the records listed here.
Test system: UACC-257
Assay: NCI SRB growth inhibition (single dose 10 µM / five-dose)
Type: cell-based, human
Conditions: Homo sapiens; UACC-257 (Melanoma), 10 µM; read-out: GI%

Q. Given the compound `COc1ccc(OC)c(C=NNC(=O)c2ccc3[nH]c(-c4ccc(Cl)cc4)nc3c2)c1` , what is its reported inhibition at 10 µM?
A. < 5%

Q. Quick one: `COc1ccc(-c2nc3cc(C(=O)NN=Cc4ccccc4O)ccc3[nH]2)cc1`
A. 85%

Q. Queued: `COc1ccc(-c2nc3cc(C(=O)NN=Cc4ccc(OC)c(O)c4)ccc3[nH]2)cc1`
A. 52.9%

Q. # repeat for `COc1ccc(-c2nc3cc(C(=O)NN=Cc4cccc(OC)c4O)ccc3[nH]2)cc1`
A. > 100%

Q. What would you report for `COc1cccc(C=NNC(=O)c2ccc3[nH]c(-c4ccc(Cl)cc4)nc3c2)c1O` ?
A. > 100%

Q. Now the same for `O=C(NN=Cc1cccc(O)c1)c1ccc2[nH]c(-c3ccc(Cl)cc3)nc2c1`
A. < 5%

Q. Likewise for `COc1cccc(C=NNC(=O)c2ccc3[nH]c(-c4ccc(Cl)cc4)nc3c2)c1` ?
A. > 100%

Q. What do we get for `COc1ccc(OC)c(C=NNC(=O)c2ccc3[nH]c(-c4ccccc4)nc3c2)c1` ?
A. < 5%

Q. Another compound to check: `COc1ccc(-c2nc3cc(C(=O)NN=Cc4cccc(OC)c4)ccc3[nH]2)cc1`
A. 57.7%

Q. What about this compound? `COc1cccc(C=NNC(=O)c2ccc3[nH]c(-c4ccccc4)nc3c2)c1`
A. 14.6%

Q. Let us now turn to `COc1ccc(C=NNC(=O)c2ccc3[nH]c(-c4ccccc4)nc3c2)cc1O`
A. 13.8%

Q. Field entry: `COc1cc(C=NNC(=O)c2ccc3[nH]c(-c4ccc(Cl)cc4)nc3c2)cc(OC)c1OC`
A. > 100%

Q. And what about the compound `COc1cc(C=NNC(=O)c2ccc3[nH]c(-c4ccccc4)nc3c2)cc(OC)c1OC` ?
A. 54.3%

Q. Please give the result for `COc1ccc(-c2nc3cc(C(=O)NN=Cc4cc(OC)c(OC)c(OC)c4)ccc3[nH]2)cc1` too.
A. 25.6%

Q. Now try `COc1ccc(-c2nc3cc(C(=O)NN=Cc4cc(OC)ccc4OC)ccc3[nH]2)cc1` .
A. 14.3%

Q. What do you get for `COc1ccc(C=NNC(=O)c2ccc3[nH]c(-c4ccc(Cl)cc4)nc3c2)cc1O` ?
A. 24.6%

Q. And the next one, `O=C(NN=Cc1cccc(O)c1)c1ccc2[nH]c(-c3ccccc3)nc2c1` ?
A. < 5%

Q. // same read-out, input: `COc1ccc(-c2nc3cc(C(=O)NN=Cc4cccc(O)c4)ccc3[nH]2)cc1`
A. 47.4%

Q. Now the same for `COc1cccc(C=NNC(=O)c2ccc3[nH]c(-c4ccccc4)nc3c2)c1O`
A. > 100%

Q. Moving on to `O=C(NN=Cc1ccccc1O)c1ccc2[nH]c(-c3ccc(Cl)cc3)nc2c1`
A. 42.4%

---

Tested on: HS 578 T
Assay: NCI SRB growth inhibition (single dose 10 µM / five-dose)
Format: cell-based, human
Conditions: Homo sapiens; HS 578 T (Breast cancer), 10 µM; read-out: GI%
So I've got a bunch of compounds here, and I need their inhibition at 10 µM values.
Report the figure in % without appending any unit label.

Q. Lab note: need inhibition at 10 µM for COc1ccc(C=NNC(=O)c2ccc3[nH]c(-c4ccccc4)nc3c2)cc1O [8e] on HS 578 T, anyone have it?
A. 6.89

Q. // repeat for COc1ccc(-c2nc3cc(C(=O)NN=Cc4cc(OC)c(OC)c(OC)c4)ccc3[nH]2)cc1 [8n] and report
A. 37.7

Q. // same read-out, input: COc1ccc(-c2nc3cc(C(=O)NN=Cc4cccc(O)c4)ccc3[nH]2)cc1 [8i]
A. 52.6

Q. What about this compound? COc1ccc(-c2nc3cc(C(=O)NN=Cc4ccc(OC)c(O)c4)ccc3[nH]2)cc1 [8l]
A. 46.2

Q. Try COc1cc(C=NNC(=O)c2ccc3[nH]c(-c4ccccc4)nc3c2)cc(OC)c1OC [8g] next.
A. 51

Q. Moving on to COc1cccc(C=NNC(=O)c2ccc3[nH]c(-c4ccccc4)nc3c2)c1O [8d]
A. 92.9

Q. Next compound: COc1ccc(C=NNC(=O)c2ccc3[nH]c(-c4ccc(Cl)cc4)nc3c2)cc1O [8s]
A. 86.9

---

Test system: MDA-MB-468
Assay: NCI SRB growth inhibition (single dose 10 µM / five-dose)
Assay type: cell-based, human
Details: Homo sapiens; MDA-MB-468 (Breast cancer), 10 µM; read-out: GI%
Please use Criterion met whenever inhibition at 10 µM is not below 40%, and Criterion not met whenever it is.

Q. Is the recorded value of inhibition at 10 µM equal to or greater than 40% for this compound? `COc1ccc(-c2nc3cc(C(=O)NN=Cc4cc(OC)c(OC)c(OC)c4)ccc3[nH]2)cc1`
A. Criterion not met

Q. Another compound: `O=C(NN=Cc1cccc(O)c1)c1ccc2[nH]c(-c3ccccc3)nc2c1`
A. Criterion not met

Q. And what about the compound `COc1ccc(-c2nc3cc(C(=O)NN=Cc4cc(OC)ccc4OC)ccc3[nH]2)cc1` ?
A. Criterion not met

Q. Please answer likewise for `COc1ccc(-c2nc3cc(C(=O)NN=Cc4cccc(O)c4)ccc3[nH]2)cc1`
A. Criterion met

Q. Entry `COc1ccc(-c2nc3cc(C(=O)NN=Cc4cccc(OC)c4O)ccc3[nH]2)cc1` please
A. Criterion met

Q. How about `COc1cccc(C=NNC(=O)c2ccc3[nH]c(-c4ccccc4)nc3c2)c1O` ?
A. Criterion met

Q. And for `COc1ccc(OC)c(C=NNC(=O)c2ccc3[nH]c(-c4ccc(Cl)cc4)nc3c2)c1` ?
A. Criterion not met

Q. Moving on to `COc1ccc(-c2nc3cc(C(=O)NN=Cc4ccccc4O)ccc3[nH]2)cc1`
A. Criterion met

Q. Repeat with `O=C(NN=Cc1cccc(O)c1)c1ccc2[nH]c(-c3ccc(Cl)cc3)nc2c1`
A. Criterion met

Q. What about `COc1ccc(-c2nc3cc(C(=O)NN=Cc4ccc(OC)c(O)c4)ccc3[nH]2)cc1` ?
A. Criterion met

Q. Continue with `COc1ccc(C=NNC(=O)c2ccc3[nH]c(-c4ccc(Cl)cc4)nc3c2)cc1O`
A. Criterion met

Q. Check `COc1ccc(C=NNC(=O)c2ccc3[nH]c(-c4ccccc4)nc3c2)cc1O` too.
A. Criterion not met

Q. And what about the compound `O=C(NN=Cc1ccccc1O)c1ccc2[nH]c(-c3ccc(Cl)cc3)nc2c1` ?
A. Criterion met

Q. Entry `COc1ccc(OC)c(C=NNC(=O)c2ccc3[nH]c(-c4ccccc4)nc3c2)c1` please
A. Criterion not met

Q. Next record, please: `COc1cccc(C=NNC(=O)c2ccc3[nH]c(-c4ccc(Cl)cc4)nc3c2)c1`
A. Criterion met

Q. Queued: `COc1cccc(C=NNC(=O)c2ccc3[nH]c(-c4ccc(Cl)cc4)nc3c2)c1O`
A. Criterion met

Q. Let us now turn to `COc1cc(C=NNC(=O)c2ccc3[nH]c(-c4ccc(Cl)cc4)nc3c2)cc(OC)c1OC`
A. Criterion met

Q. Lookup `COc1ccc(-c2nc3cc(C(=O)NN=Cc4cccc(OC)c4)ccc3[nH]2)cc1`
A. Criterion met

Q. Cool, now `COc1cccc(C=NNC(=O)c2ccc3[nH]c(-c4ccccc4)nc3c2)c1`
A. Criterion not met
